Test system: K4 kissing-loop RNA reporter;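 note: bound reporter read as fluorescence of individual clusters on recovered sequencing chips by microscopy, with normalized cluster intensities fitted with a binding model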
Experiment: apparent KD of K4 kissing-loop reporter; higher = weaker reporter binding
Conditions: Eterna round: R107; input ligand: none
Parameter apparent KD of K4 kissing-loop reporter: see the listing below.
Number in nM, nothing else.

Recorded apparent KD of K4 kissing-loop reporter, per entry:
AAGUGUCAUUAGACACACGCAUCUAUAAACUAGGAUAUGCUGAUAAGCAGAAGGAGUGAUGUUCCUUUCAUGAUGCGAAUUAAAU [#07 K4 FMN A Exclusion]; 113
GGGAGGAAAAUUUUCCUCAAAAGUUGGCUACAGGAUAUCGUGGGAAUGAGAAGGGUAACCGAGACGCCCAGUGAUGUUGGGUGCC [Antegete]; 318

# input sequence: AAUGUACAGGGAAGGAGCGUCGUCCAGUGAUGUUGGAGUUAAAUACCAGUGAUGUUGGUUAGGCAGGUAGGUCGCCCUAAAGUAG [#09 K4 Arginine B Exclusion] ; wanted: its apparent KD of K4 kissing-loop reporter
80.1
